Source: paper PMC4336329

target: human ether-à-go-go-related gene (hERG) potassium channel (human); assay: primary screen, population patch clamp on CHO cells stably expressing hERG; higher = less effect of the substance;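 also: peak tail current of the secondary pulse compared with the same well before compound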
Sequence (Q12809 whole entry, looked up): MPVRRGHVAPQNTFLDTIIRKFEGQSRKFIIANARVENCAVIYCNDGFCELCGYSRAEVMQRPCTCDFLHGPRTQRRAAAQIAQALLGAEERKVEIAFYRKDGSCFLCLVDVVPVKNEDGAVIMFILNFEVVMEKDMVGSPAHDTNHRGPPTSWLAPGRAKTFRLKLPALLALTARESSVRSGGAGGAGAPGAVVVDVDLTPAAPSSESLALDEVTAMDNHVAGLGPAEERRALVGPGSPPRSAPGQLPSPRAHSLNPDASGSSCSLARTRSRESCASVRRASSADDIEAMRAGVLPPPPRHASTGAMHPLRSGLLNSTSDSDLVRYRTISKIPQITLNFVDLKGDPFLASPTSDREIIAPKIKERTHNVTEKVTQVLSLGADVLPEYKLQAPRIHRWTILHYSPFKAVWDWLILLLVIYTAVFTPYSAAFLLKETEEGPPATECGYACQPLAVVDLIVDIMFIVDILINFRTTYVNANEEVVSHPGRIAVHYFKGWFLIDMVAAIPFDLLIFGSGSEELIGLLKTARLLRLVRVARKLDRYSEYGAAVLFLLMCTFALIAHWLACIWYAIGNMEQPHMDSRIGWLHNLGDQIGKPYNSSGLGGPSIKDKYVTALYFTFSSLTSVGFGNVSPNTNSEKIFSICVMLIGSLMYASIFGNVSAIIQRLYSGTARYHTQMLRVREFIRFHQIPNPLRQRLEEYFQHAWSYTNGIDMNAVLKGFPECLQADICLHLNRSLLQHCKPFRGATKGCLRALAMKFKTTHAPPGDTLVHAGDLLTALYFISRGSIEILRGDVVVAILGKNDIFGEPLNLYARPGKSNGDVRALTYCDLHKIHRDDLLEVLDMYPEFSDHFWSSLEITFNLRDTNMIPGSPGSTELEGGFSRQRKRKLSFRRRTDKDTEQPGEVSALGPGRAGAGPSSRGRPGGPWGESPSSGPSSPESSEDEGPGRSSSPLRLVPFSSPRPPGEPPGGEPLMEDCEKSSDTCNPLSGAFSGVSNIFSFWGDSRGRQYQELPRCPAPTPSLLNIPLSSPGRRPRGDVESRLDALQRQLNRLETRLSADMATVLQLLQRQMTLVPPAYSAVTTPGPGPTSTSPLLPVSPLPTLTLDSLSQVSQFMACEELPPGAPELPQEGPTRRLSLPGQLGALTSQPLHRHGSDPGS
Hit rate of the full screen: of about 310,000 compounds, about 14,000 (4.5%) showed an effect of 50% or more. The effect is printed as a negative number. This excerpt belongs to a sample that is enriched for strong results.
attribute.measured: hERG current change (%, negative = inhibition) at 10uM
Phrase the answer as number then unit, nothing more needed.

In: I'd like to know its hERG current change (%, negative = inhibition) at 10uM. The molecule in question is "CCn1cc(Cl)c(C(=O)Nc2nc3ccccc3n2CCN2CCCCC2)n1"
Out: -65.5%

In: I'd like to know its hERG current change (%, negative = inhibition) at 10uM. The molecule in question is "c1ccc(N2CCN(c3nc4ccccc4[nH]3)CC2)nc1"
Out: -64.4%

In: I'd like to know its hERG current change (%, negative = inhibition) at 10uM. The molecule in question is "CCn1nccc1C(=O)Nc1nc2ccccc2n1CCN1CCCCC1"
Out: -39.8%

In: I'd like to know its hERG current change (%, negative = inhibition) at 10uM. The molecule in question is "Cn1ncc([N+](=O)[O-])c1C(=O)Nc1nc2ccccc2n1CCN1CCCCC1"
Out: -25.1%

In: I'd like to know its hERG current change (%, negative = inhibition) at 10uM. The molecule in question is "CC(C)(Cc1cc(CC(C)(C)C(=O)O)cc(C(C)(C)C)c1)C(=O)O"
Out: 10.4%

In: I'd like to know its hERG current change (%, negative = inhibition) at 10uM. The molecule in question is "Cc1c(Cl)c(C(=O)Nc2nc3ccccc3n2CCN2CCCCC2)nn1C"
Out: -68.1%

In: I'd like to know its hERG current change (%, negative = inhibition) at 10uM. The molecule in question is "CN1CCN(CCCCOc2ccc(F)cc2)CC1"
Out: 0.265%

In: I'd like to know its hERG current change (%, negative = inhibition) at 10uM. The molecule in question is "CCN(CC)c1nc(N2CCN(C)CC2)nc2ccccc12.Cl"
Out: -44.3%

In: I'd like to know its hERG current change (%, negative = inhibition) at 10uM. The molecule in question is "Oc1ccc2ccccc2c1CN1CCN(C/C=C/c2ccccc2)CC1"
Out: 14%

In: I'd like to know its hERG current change (%, negative = inhibition) at 10uM. The molecule in question is "O=C(Nc1nc2ccccc2n1CCN1CCOCC1)c1ccc(Cl)cc1"
Out: 1.72%
